assay_system: T1, EsCas13d, nuclease-dead (Eubacterium siraeum, UniProt B0MS50, R295A;H300A;R849A;H854A)
T1 sequence: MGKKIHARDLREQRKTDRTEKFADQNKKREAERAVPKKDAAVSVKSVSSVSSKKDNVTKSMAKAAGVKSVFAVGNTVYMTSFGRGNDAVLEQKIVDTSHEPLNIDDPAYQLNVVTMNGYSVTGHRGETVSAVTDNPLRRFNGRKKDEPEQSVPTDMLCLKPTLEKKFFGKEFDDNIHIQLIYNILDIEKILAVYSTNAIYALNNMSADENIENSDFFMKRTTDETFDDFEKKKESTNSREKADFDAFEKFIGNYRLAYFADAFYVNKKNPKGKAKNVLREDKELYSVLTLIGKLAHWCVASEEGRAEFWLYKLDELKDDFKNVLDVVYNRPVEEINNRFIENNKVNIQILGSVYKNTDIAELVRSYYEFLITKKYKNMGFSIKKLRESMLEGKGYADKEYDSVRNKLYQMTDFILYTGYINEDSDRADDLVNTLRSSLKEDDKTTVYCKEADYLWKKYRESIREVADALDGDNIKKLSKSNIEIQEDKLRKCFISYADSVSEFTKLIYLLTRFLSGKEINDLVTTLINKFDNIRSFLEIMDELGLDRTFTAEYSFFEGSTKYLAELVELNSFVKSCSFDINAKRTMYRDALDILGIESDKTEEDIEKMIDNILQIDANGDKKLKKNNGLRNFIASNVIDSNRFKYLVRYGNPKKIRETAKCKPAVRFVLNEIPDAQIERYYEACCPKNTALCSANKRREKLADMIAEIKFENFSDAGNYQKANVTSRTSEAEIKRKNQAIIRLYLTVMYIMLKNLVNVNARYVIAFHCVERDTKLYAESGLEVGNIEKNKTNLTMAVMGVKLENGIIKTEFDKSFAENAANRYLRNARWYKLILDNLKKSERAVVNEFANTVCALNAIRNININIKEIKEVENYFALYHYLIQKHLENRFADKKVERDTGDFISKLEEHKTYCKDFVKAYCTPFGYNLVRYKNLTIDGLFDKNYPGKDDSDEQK
method: crRNA (strand 1, pre-loaded); Mg2+; 40 mM Tris-HCl pH 7.5, 150 mM NaCl, 6 mM MgCl2, 1 mM DTT, 0.1% Tween-20, 0.2 mg/ml BSA; 25 C; 10 min per concentration, then washed
experimental_parameters: tags: His6-TwinStrep-SUMO cleaved; N-terminal SNAP kept (SNAP-Surface 488); label: 3' end held by stalled T7 RNA polymerase
attribute_measured: log10 of Kd (log10 of the value in nM)
All values: base-10 log of Kd in nM.

Sample answers from the record:
- binder: "target 1 G5C,U10C (mixed) RNA 1: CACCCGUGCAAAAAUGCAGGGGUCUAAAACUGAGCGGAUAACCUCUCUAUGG RNA 2: GGGAAUGGAUCCACAUCUACGAAUUCGUACCAUAGAGAGGUCAUCCCCUCACCGAGAUCGGAAGAGCACACGU"
  readout_value: 1.37
- binder: "target 3 insA 3' of 14,insU 3' of 3 (mixed) RNA 1: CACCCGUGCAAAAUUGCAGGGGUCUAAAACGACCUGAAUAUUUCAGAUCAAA RNA 2: GGGAAUGGAUCCACAUCUACGAAUUCGUUUUUGAUCUGAAAAUAUUCAGGUUCUGCAGAUCGGAAGAGCACACGU"
  readout_value: 1.96
- binder: "target 1 MT 5'PFS GUU 3'PFS CUG (mixed) RNA 1: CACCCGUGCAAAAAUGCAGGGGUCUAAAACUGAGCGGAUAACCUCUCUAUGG RNA 2: GGGAAUGGAUCCACAUCUACGAAUUCGUUCCAUAGAGAGGUUAUCCGCUCACUGAGAUCGGAAGAGCACACGU"
  readout_value: 1.11

Q: What measured log10 of Kd goes with target 2 MT 5'PFS UAG 3'PFS UUU (mixed) RNA 1: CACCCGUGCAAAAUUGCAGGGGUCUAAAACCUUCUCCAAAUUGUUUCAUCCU RNA 2: GGGAAUGGAUCCACAUCUACGAAUUCUAGAGGAUGAAACAAUUUGGAGAAGUUUAGAUCGGAAGAGCACACGU ?
Ans: 0.81

Q: Would you mind doing target 3 insC 3' of 22,insU 3' of 6 (mixed) RNA 1: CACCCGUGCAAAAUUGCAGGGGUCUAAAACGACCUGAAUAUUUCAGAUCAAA RNA 2: GGGAAUGGAUCCACAUCUACGAAUUCGUUUCUUGAUCUGAAAUAUUCUAGGUCUGCAGAUCGGAAGAGCACACGU as well?
Ans: 1.47

Q: Would you mind doing target 1 insC 3' of 9,insC 3' of 9 (mixed) RNA 1: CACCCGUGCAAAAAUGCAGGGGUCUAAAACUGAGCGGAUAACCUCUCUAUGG RNA 2: GGGAAUGGAUCCACAUCUACGAAUUCGUACCAUAGAGAGGUUACCUCCGCUCACCGAGAUCGGAAGAGCACACGU as well?
Ans: 1.03

Q: Would you mind doing target 1 C4A,A18C (mixed) RNA 1: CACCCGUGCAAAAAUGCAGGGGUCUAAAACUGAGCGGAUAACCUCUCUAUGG RNA 2: GGGAAUGGAUCCACAUCUACGAAUUCGUACCAUCGAGAGGUUAUCCGAUCACCGAGAUCGGAAGAGCACACGU as well?
Ans: 1.80

Q: Would you mind doing target 2 MT 5'PFS GCC 3'PFS CUA (mixed) RNA 1: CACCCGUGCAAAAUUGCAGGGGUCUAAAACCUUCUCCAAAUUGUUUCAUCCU RNA 2: GGGAAUGGAUCCACAUCUACGAAUUCGCCAGGAUGAAACAAUUUGGAGAAGCUAAGAUCGGAAGAGCACACGU as well?
Ans: 1.07

Q: Would you mind doing target 1 insA 3' of 21,insG 3' of 21 (mixed) RNA 1: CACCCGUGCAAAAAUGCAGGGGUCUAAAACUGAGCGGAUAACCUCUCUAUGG RNA 2: GGGAAUGGAUCCACAUCUACGAAUUCGUACCAGAUAGAGAGGUUAUCCGCUCACCGAGAUCGGAAGAGCACACGU as well?
Ans: 1.60

Q: Would you mind doing target 1 insA 3' of 5,insG 3' of 3 (mixed) RNA 1: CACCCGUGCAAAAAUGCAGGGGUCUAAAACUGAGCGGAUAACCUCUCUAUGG RNA 2: GGGAAUGGAUCCACAUCUACGAAUUCGUACCAUAGAGAGGUUAUCCGACUGCACCGAGAUCGGAAGAGCACACGU as well?
Ans: 0.77

Q: Would you mind doing target 3 insG 3' of 9,insG 3' of 6 (mixed) RNA 1: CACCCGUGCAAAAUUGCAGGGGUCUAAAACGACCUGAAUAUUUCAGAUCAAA RNA 2: GGGAAUGGAUCCACAUCUACGAAUUCGUUUUUGAUCUGAAAUAGUUCGAGGUCUGCAGAUCGGAAGAGCACACGU as well?
Ans: 1.85
